// each record: one item and its Ki for Sigma-1 receptor (Cavia porcellus (Guinea pig), UniProt Q60492)
Provide the measurement as a number trailed by its unit.

Below, each entry is followed by its recorded Ki result.
Compound	Ki
CC1COCC(C)N1CCOCc1cc(-c2ccc(Cl)c(Cl)c2)no1 (stereo not shown)	14.9 nM
O[C@H]1CCN(Cc2cc(-c3ccc(F)c(F)c3)no2)C1	378 nM
Fc1ccc(-c2cc(CN3CC[Se]CC3)on2)cc1F	48.9 nM

Here is another compound to look at.
Request the reported Ki associated with OC[C@H]1CCCN1Cc1cc(-c2ccc(F)c(F)c2)no1
190 nM
